Molecular target: DLG4_3, P78352
Sequence (P78352 306-403): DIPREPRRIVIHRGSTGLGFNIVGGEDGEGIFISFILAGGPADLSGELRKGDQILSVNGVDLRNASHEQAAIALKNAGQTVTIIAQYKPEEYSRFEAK
Experiment: holdup assay
Parameters: key: below the threshold = too weak to quantify, mostly under pKd 3.1 to 4
Conditions: plain residues with an end cap or a label only (N-terminal biotin on a linker: ahx)
Measured attribute: pKd

> print(dat)
                        binder                value
1   QDEKVKESYV [ABCA1, O95477]                 3.78
2  TEAKLTETNA [MYO18A, Q92614]  below the threshold
3  EKQAKGDTEF [CACYBP, Q9HB71]  below the threshold
